Reference for the values: the supplement of paper PMC8728848

# system.tested: Kdn(a2-3)Gal(b1-4)GlcNAc
# assay.name: glycan array binding signal (z-score within array); higher = stronger binding
# measurement.context: glycan notation: IUPAC condensed, linker removed
The sample as a whole holds a higher share of the strongest signals than the screen did.
reported.endpoint: glycan array binding signal (z-score)

{"columns": ["binder", "glycan array binding signal (z-score)"],
 "data": [
  ["PGP3 (Chlamydia trachomatis), P0CE18 (protein) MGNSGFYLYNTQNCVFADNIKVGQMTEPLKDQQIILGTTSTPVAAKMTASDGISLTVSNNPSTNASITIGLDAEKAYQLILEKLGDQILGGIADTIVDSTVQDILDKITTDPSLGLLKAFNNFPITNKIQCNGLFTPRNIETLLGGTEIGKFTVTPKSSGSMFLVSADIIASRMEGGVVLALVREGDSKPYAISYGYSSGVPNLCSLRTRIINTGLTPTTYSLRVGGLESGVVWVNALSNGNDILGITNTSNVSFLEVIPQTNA", 1.53]
]}

Now for the binder whose glycan array binding signal (z-score) we want.
Input Gz-CVNH (Gibberella zeae) (protein) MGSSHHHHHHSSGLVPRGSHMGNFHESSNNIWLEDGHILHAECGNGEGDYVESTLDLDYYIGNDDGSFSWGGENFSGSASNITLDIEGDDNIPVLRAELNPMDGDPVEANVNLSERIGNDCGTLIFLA , output reported glycan array binding signal (z-score). -0.117
